- target system: rat MCH-1 (Rattus norvegicus, UniProt P97639)
- Sequence (P97639 whole entry): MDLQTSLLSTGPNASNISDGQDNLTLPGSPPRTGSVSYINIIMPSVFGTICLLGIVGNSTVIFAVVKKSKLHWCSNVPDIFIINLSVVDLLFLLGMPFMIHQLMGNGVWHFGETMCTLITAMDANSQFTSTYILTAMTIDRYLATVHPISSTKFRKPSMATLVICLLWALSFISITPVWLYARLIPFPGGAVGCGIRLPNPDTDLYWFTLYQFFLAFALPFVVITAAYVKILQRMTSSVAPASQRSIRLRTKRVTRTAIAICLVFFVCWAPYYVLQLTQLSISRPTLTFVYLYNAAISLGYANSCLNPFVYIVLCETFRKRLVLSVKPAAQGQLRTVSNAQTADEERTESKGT
- method summary: Radioligand binding assay at cloned rat MCH1 receptor ([3H] Compound A)
- Parameters: host or cells: Peak rapid 293 (Peakr293) cells, transient calcium phosphate transfection, membranes
- protocol conditions: cloned rat MCH1 receptor; 0.08 nM [3H] Compound A; Peakr293 cell membranes; read-out: Ki (nM) rMCH1
Below, each entry is listed with its recorded Ki.
Only the number, expressed in nM, is required.

Briefly, Ki measured for CCC(=O)Nc1cccc(C2CCN(Cc3cn(-c4ccccc4Cl)c4ccccc34)CC2)c1 [Example 461] : 35.6

For reference, reported Ki for CC(C)C(=O)Nc1cccc(C2CCN(Cc3c[nH]c4c(-c5ccccc5F)cccc34)CC2)c1 [Example 516] stands at 90.9

Per the record, Cc1onc(-c2ccccc2Cl)c1C(=O)NCCCCN1CCC(c2cccc(NC(=O)C(C)C)c2)CC1 [Example 680] has Ki of 28.1

Field Ki (entry CC(C)C(=O)Nc1cccc(C2CCN(CCCCSc3ccccc3)CC2)c1 [Example 585] ) reads 37.2

Lab note: CC(C)C(=O)Nc1cccc(C2CCN(CCCNC(=O)Nc3ccc(F)cc3)CC2)c1 [Example 613] gave Ki of 34.9

Per the records, this molecule ( Cc1cccc2c(CN3CCC(c4cccc(NC(=O)C(C)C)c4)CC3)cn(-c3ccccc3)c12 [Example 509] ) has Ki equal to 24.3

---

- target system: rat MCH-1 (Rattus norvegicus, UniProt P97639)
- method summary: Radioligand binding assay at cloned rat MCH1 receptor ([3H] Compound A)
- Parameters: host or cells: Peak rapid 293 (Peakr293) cells, transient calcium phosphate transfection, membranes
- protocol conditions: cloned rat MCH1 receptor, membranes from Peakr293 cells, 0.08 nM [3H] Compound A; read-out: Ki (nM) rMCH1
value kind: Ki (nM)
The reply should be a number in nM, with the unit left off.

{"columns": ["compound", "value observed"],
 "data": [
  ["COc1ccccc1C(=O)N[C@@H](CCN1CCC(c2cccc(NC(=O)C(C)C)c2)CC1)c1ccccc1 [Example 310]", 152],
  ["CC(=O)c1cccc(O[C@H](CCN2CCC(c3cccc(N(C)C(=O)C(C)C)c3)CC2)c2ccccc2)c1 [Example 354]", 81.6],
  ["Cc1cc(CN2CCC(c3cccc(NC(=O)C(C)C)c3)CC2)c(C)n1-c1cccc(C(F)(F)F)c1 [Example 109]", 20.9]
]}

API: the following record is the query input.
Notebook: CC(C)C(=O)Nc1cccc(C2CCN(CCC(Oc3ccc(F)cc3)c3ccc(Cl)cc3)CC2)c1 (stereo not shown) [Example 183] , Ki read as 4

---

- target system: UniProt:P97639
- method summary: Radioligand binding assay at cloned rat MCH1 receptor ([3H] Compound A)
- Design: host or cells: Peak rapid 293 (Peakr293) cells, transient calcium phosphate transfection, membranes
- protocol conditions: cloned rat MCH1 receptor; 0.08 nM [3H] Compound A; Peakr293 cell membranes; read-out: Ki (nM) rMCH1
value kind: Ki
Report as: number unit

{"columns": ["smiles input", "value kind", "value observed"],
 "data": [
  ["O=C(Nc1cccc(C2CCN(Cc3cn(-c4ccc(Cl)cc4)c4ccccc34)CC2)c1)C1CC1", "Ki", "12.4 nM"]
]}

Noted for "CC(C)C(=O)Nc1cccc(C2CCN(CCCNC(=S)NC(C)(C)C)CC2)c1" : its Ki reads 223 nM

"Cc1ccc2[nH]c(-c3ccccc3)c(CCCCN3CCC(c4cccc(NC(=O)C(C)C)c4)CC3)c2c1" has a reported Ki of 1.8 nM

For "CC(C)C(=O)Nc1cccc(C2CCN(Cc3cn(-c4ccc(F)cc4)c4ccccc34)CC2)c1" the compound record lists Ki as 7.1 nM

Lab book: Ki of "CC(C)C(=O)Nc1cccc(C2CCN(Cc3c[nH]c4c(-c5cccc(Cl)c5)cccc34)CC2)c1" noted as 135 nM

Looking up "CC(C)C(=O)Nc1cccc(C2CCN(CCCc3c(-c4ccc(Cl)cc4)[nH]c4c3ccc3ccccc34)CC2)c1" , I found its Ki recorded as 19.6 nM

Value of measured Ki for the entry "CC(C)C(=O)Nc1cccc(C2CCN(CCCNS(=O)(=O)c3ccc(Cl)c([N+](=O)[O-])c3)CC2)c1" : 11.2 nM

Data provenance is patent US6727264B1.
